System: 769-P
Assay: Cytotoxicity against human 769-P cells after 48 hrs by MTT assay
Type: functional, cell-based
Metric: pIC50
Numbers only, as −log10 of the molar value.

Compound | Measured
CCCCn1c2ccccc2c2cc(C(=O)OCCCCCCOC(=O)c3cc4c5ccccc5n(CCCC)c4cn3)ncc21 | 3.95
CCCCn1c2ccccc2c2cc(C(=O)OCCCCCOC(=O)c3cc4c5ccccc5n(CCCC)c4cn3)ncc21 | 4.48
CCn1c2ccccc2c2cc(C(=O)OCCCCCCOC(=O)c3cc4c5ccccc5n(CC)c4c(-c4cc(OC)c(OC)c(OC)c4)n3)nc(-c3cc(OC)c(OC)c(OC)c3)c21 | 4.96

Turning to the following compound.
Lab note: CCCCn1c2ccccc2c2cc(C(=O)OCCCCCCCCOC(=O)c3cc4c5ccccc5n(CCCC)c4cn3)ncc21 gave pIC50 of 3.68
